# Test System: human M4 receptor (Homo sapiens, UniProt P08173)
# Construct: expressed in transfected cells; host or cells: CHO cells
# Sequence (P08173 1-479): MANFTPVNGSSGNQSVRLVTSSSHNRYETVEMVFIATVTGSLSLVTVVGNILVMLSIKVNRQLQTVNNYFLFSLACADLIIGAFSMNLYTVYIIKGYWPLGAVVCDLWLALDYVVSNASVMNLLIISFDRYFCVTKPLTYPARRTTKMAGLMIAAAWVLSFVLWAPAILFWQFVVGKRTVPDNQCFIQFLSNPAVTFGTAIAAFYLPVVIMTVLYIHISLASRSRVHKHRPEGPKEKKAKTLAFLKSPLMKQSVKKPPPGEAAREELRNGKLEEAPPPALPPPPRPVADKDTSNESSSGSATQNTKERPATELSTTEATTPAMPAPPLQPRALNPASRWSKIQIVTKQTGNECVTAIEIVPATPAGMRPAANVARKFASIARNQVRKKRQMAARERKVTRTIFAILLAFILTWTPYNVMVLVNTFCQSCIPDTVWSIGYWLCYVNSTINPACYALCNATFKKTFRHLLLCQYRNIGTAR
# Procedure Details: Radioligand ([3H]N-methylscopolamine) binding assay, membranes from CHO cells expressing human M4 receptor
# Measurement Setup: Ki against human M4 receptor; membranes from CHO cells; tritiated N-methylscopolamine 1.5 nM; read-out: K
pKi: −log10 of the molar value.

# Smiles Text, pKi
rows = [
    ("O=C(OC1CC2(C1)CN(Cc1ccccc1)C2)N1CCN(c2cc(F)c(F)c(F)c2)CC1", "6.00 to 7.00"),
    ("C[C@@H]1CN(c2ccc([N+](=O)[O-])cn2)C[C@H](C)N1C(=O)OC1CC2(C1)CN(Cc1ccccc1)C2", "7.00 to 8.00"),
    ("C[C@@H]1CN(c2ncccc2C(F)(F)F)C[C@@H](C)N1C(=O)OC1CC2(C1)CN(Cc1ccccc1)C2", "6.00 to 7.00"),
    ("C[C@@H]1CN(c2ccc(C(F)(F)F)nc2)C[C@H](C)N1C(=O)OC1CC2(C1)CN(Cc1ccccc1)C2", "7.00 to 8.00"),
    ("O=C(OC1CC2(C1)CN(Cc1ccccc1)C2)N1CCN(c2ccc(C(F)(F)F)cn2)CC1", "6.00 to 7.00"),
    ("C[C@@H]1CN(c2nc3ccc(C(F)(F)F)cc3s2)C[C@H](C)N1C(=O)NC1CC2(C1)CN(Cc1ccccc1)C2", "> 8.00"),
    ("C[C@@H]1CN(c2ncc(C(F)(F)F)cn2)[C@@H](C)CN1C(=O)NC1CC2(C1)CN(Cc1ccc(F)cc1)C2", "7.00 to 8.00"),
]

---

# Test System: human M4 receptor (Homo sapiens, UniProt P08173)
# Construct: expressed in transfected cells; host or cells: CHO cells
# Procedure Details: Radioligand ([3H]N-methylscopolamine) binding assay, membranes from CHO cells expressing human M4 receptor
# Measurement Setup: Ki against human M4 receptor; membranes from CHO cells; tritiated N-methylscopolamine 1.5 nM; read-out: K
# Procedure: Binding affinity (Ki) for the compounds was measured by inhibition of radioligand binding to membranes from CHO cells expressing human M4 receptor. Membranes were prepared by nitrogen cavitation and differential centrifugation as previously described (Hoare et al., Mol. Pharmacol. 2003 March; 63(3): 751-65). […] Harvesting and radioactivity counting was conducted as previously described (see, e.g., Hoare et al., Mol. Pharmacol. 2003 63(3):751-65); Erratum at Mol. Pharmacol. 2005 July; 68(1): 260).
Ki for assorted molecules

# Smiles Text, Test System, Ki
records = [
    ("COc1ccc2nc(N3C[C@@H](C)N(C(=O)OC4CC5(C4)CN(Cc4ccc(F)cc4)C5)[C@@H](C)C3)cnc2c1", "human M4 receptor (Homo sapiens, UniProt P08173)", "0.01 to 0.1 µM"),
    ("COc1ccc2nc(N3C[C@@H](C)N(C(=O)NC4CC5(C4)CN(Cc4ccccc4)C5)[C@H](C)C3)cnc2c1", "human M4 receptor (Homo sapiens, UniProt P08173)", "0.01 to 0.1 µM"),
    ("C[C@@H]1CN(c2ncc(C(F)(F)F)cn2)C[C@H](C)N1C(=O)NC1CC2(C1)CN(Cc1ccc(Cl)nc1)C2", "human M4 receptor (Homo sapiens, UniProt P08173)", "0.01 to 0.1 µM"),
    ("C[C@@H]1CN(c2ncc(C(F)(F)F)cn2)C[C@H](C)N1C(=O)NC1CC2(C1)CN(CCCCc1ccccc1)C2", "human M4 receptor (Homo sapiens, UniProt P08173)", "0.1 to 1 µM"),
    ("C[C@@H]1CN(c2cnc(C(F)(F)F)cn2)[C@@H](C)CN1C(=O)NC1CC2(C1)CN(Cc1ccccc1)C2", "human M4 receptor (Homo sapiens, UniProt P08173)", "0.01 to 0.1 µM"),
    ("C[C@@H]1CN(c2ncc(C(F)(F)F)cn2)C[C@H](C)N1C(=O)NC1CC2(C1)CN(Cc1ccc(C(F)(F)F)cc1)C2", "human M4 receptor (Homo sapiens, UniProt P08173)", "0.01 to 0.1 µM"),
    ("CCCc1cnc(N2C[C@@H](C)N(C(=O)OC3CC4(C3)CN(Cc3ccccc3)C4)[C@@H](C)C2)nc1", "human M4 receptor (Homo sapiens, UniProt P08173)", "< 0.01 µM"),
    ("C[C@@H]1CN(c2ncc(C(F)(F)F)cn2)CCN1C(=O)NC1CC2(C1)CN(Cc1ccc(Cl)cc1)C2", "human M4 receptor (Homo sapiens, UniProt P08173)", "0.1 to 1 µM"),
    ("[2H]c1c([2H])c([2H])c(C([2H])([2H])N2CC3(CC(OC(=O)N4C[C@H](C)N(c5cnc(C(F)(F)F)cn5)C[C@H]4C)C3)C2)c([2H])c1[2H]", "human M4 receptor (Homo sapiens, UniProt P08173)", "0.01 to 0.1 µM"),
    ("C[C@@H]1CN(c2ncc(C(F)(F)F)cn2)C[C@H](C)N1C(=O)NC1CC2(C1)CN(Cc1ccc([N+](=O)[O-])cc1)C2", "human M4 receptor (Homo sapiens, UniProt P08173)", "0.01 to 0.1 µM"),
    ("C[C@@H]1CN(c2cc(F)c(F)c(F)c2)C[C@H](C)N1C(=O)NC1CC2(C1)CN(Cc1ccccc1)C2", "human M4 receptor (Homo sapiens, UniProt P08173)", "< 0.01 µM"),
    ("C[C@@H]1CN(c2cnc(C(F)(F)F)cn2)[C@@H](C)CN1C(=O)NC1CC2(C1)CN(Cc1ccc(F)cc1)C2", "human M4 receptor (Homo sapiens, UniProt P08173)", "0.01 to 0.1 µM"),
    ("C[C@@H]1CN(c2ncc(C(F)(F)F)cn2)C[C@H](C)N1C(=O)OC1CC2(C1)CN(Cc1ccc(F)cc1)C2", "human M4 receptor (Homo sapiens, UniProt P08173)", "0.01 to 0.1 µM"),
]
